assay: Determination of the log P values by HPLC (formic acid method); format: physicochemical; conditions: reversed-phase column (C 18), acidic range (pH 3.4), 55° C.
Result type: log P

Below, 5 compounds whose answers are already recorded.
>>> value_reported("Cc1ccsc1C(=O)Nc1ccn(-c2c(F)cccc2F)n1")
2.64
>>> value_reported("O=C(Nc1ccn(-c2cccc(Cl)c2F)n1)c1cccnc1Br")
2.64
>>> value_reported("CCN(C(=O)c1ccccc1C(F)(F)F)c1ccn(-c2c(F)cccc2F)n1")
3.31
>>> value_reported("Cc1cc(NC(=O)c2ccccc2I)nn1-c1ccc(F)cc1F")
3.73
>>> value_reported("Cn1cc(C(=O)Nc2ccn(-c3ncc(F)cc3F)n2)c(C(F)(F)F)c1")
2.31

[P] CCOc1c(F)cccc1-n1ccc(NC(=O)c2ccccc2Br)n1
[Q] O=C(Nc1ccn(-c2nccnc2F)n1)c1c(F)cccc1F
// pick min by log P: P , Q The response must carry the label of the picked entry. Q

---

experiment: Determination of the log P values by HPLC (formic acid method); type: physicochemical; details: reversed-phase column (C 18), acidic range (pH 3.4), 55° C.
Result type: log P

Below, 4 molecules whose answers are already recorded.
>>> value_reported("O=C(Nc1ccn(-c2ncc(F)cc2F)n1)c1ccccc1-n1cncn1 [Compound I-1-150]")
1.47
>>> value_reported("O=C(Nc1nn(-c2ccccc2Cl)cc1I)c1ccccc1I [Compound I-1-367]")
3.18
>>> value_reported("O=C(Nc1ccn(-c2cncc(F)n2)n1)c1c(F)cccc1F [Compound I-1-403]")
2.32
>>> value_reported("Cc1snnc1C(=O)Nc1ccn(-c2ncc(F)cc2F)n1 [Compound I-1-546]")
2.15

[a] N#Cc1cc(F)c(-n2nc(NC(=O)c3c(F)cccc3F)c3c(F)cccc32)cc1F [Compound I-5-11]
[b] O=C(c1ccccc1I)N(C(=O)c1ccccc1I)c1nn(-c2ccccc2Br)nc1Cl [Compound I-2-34]
// pick min by log P: a , b The response must carry the label of the picked entry. a
(a: 2.99, b: 5.06)

[A] O=C(Nc1ccn(-c2cc(F)c(F)cc2F)n1)c1cccnc1C(F)(F)F [Compound I-1-192]
[B] O=C(Nc1ccn(-c2c(F)cccc2F)n1)c1cncnc1C(F)(F)F [Compound I-1-295]
Param pair: A , B . Output: the one whose log P is numerically greater. The response must carry the label of the picked entry. A
(A: 3.42, B: 2.25)

[1] Cc1cccc(C)c1C(=O)Nc1ccn(-c2ncc(F)cc2F)n1 [Compound I-1-480]
[2] CCCN(C(=O)c1ccccc1C(F)(F)F)c1ccn(-c2c(F)cccc2F)n1 [Compound I-1-261]
[3] Cn1cc([N+](=O)[O-])c(C(=O)Nc2ccn(-c3ncc(F)cc3F)n2)n1 [Compound I-1-453]
Hello, I need these entries ordered by log P, highest reading first. Thanks! List the labels in the requested order. 2, 1, 3

[1] Cn1nc(C(F)(F)F)c(Br)c1C(=O)Nc1ccn(-c2c(F)cccc2F)n1 [Compound I-1-303]
[2] Cn1cnc(C(=O)Nc2ccn(-c3ncc(F)cc3F)n2)c1[N+](=O)[O-] [Compound I-1-454]
[3] Cn1ncc(F)c1C(=O)Nc1ccn(-c2c(F)cccc2F)n1 [Compound I-1-321]
Hello, I need these entries ordered by log P, highest reading first. Thanks! List the labels in the requested order. 1, 3, 2

[1] Cn1nc(C(F)(F)C(F)(F)F)c(C(F)(F)F)c1C(=O)Nc1ccn(-c2ncc(F)cc2F)n1 [Compound I-1-450]
[2] Cc1snnc1C(=O)Nc1ccn(-c2c(F)cccc2F)n1 [Compound I-1-332]
Param pair: 1 , 2 . Output: the one whose log P is numerically greater. The response must carry the label of the picked entry. 1
